measurementProtocol: water/octanol partition coefficient logD (exp.)
Type: physicochemical
conditionDetails: 1-octanol/PBS pH 7.4; determined for (S)-[^18F]9a
measurementLabel: logD

| molecule | reported |
| --- | --- |
| C=C(F)C[C@@H](C(=O)NO)N(Cc1ccccc1)S(=O)(=O)c1ccc(OCCF)cc1 [(S)-9a] | 1.16 |
| C=C(F)C[C@@H](C(=O)NO)N(Cc1ccccc1)S(=O)(=O)c1ccc(OCC[18F])cc1 [(S)-[^18F]9a] | 1.16 |

Numbers sourced from paper PMC6063323.
